Consider the following compounds; for each one, report its T2 sensor activation Q score.
- Test system: ppGalNAc-T2 sensor
- measurement-protocol: T2 sensor activation Q score (MG/GFP ratio z-score vs DMSO controls) (SD units); higher = more sensor activation (inhibition of ppGalNAc-T2 glycosylation)
- condition-description: HEK293 sensor cells; 10 µM; 6 h
Whole data set: some 1,700 compounds, median “T2 sensor activation Q score (MG/GFP ratio z-score vs DMSO controls)” near 0.3, cut for the highest 2% near 1.9. The sample as a whole holds a higher share of the highest values than the screen did.

Give the measured T2 sensor activation Q score of NN=C1C(Cl)=C(Cl)C(Cl)=C1Cl .
-0.35

Give the measured T2 sensor activation Q score of Cn1cnc([N+](=O)[O-])c1N=C(N)N .
2.2

Give the measured T2 sensor activation Q score of O=C1N[C@H]2[C@H](O)[C@H](O)[C@@H](O)[C@H](O)[C@@H]2c2cc3c(c(O)c21)OCO3 .
2.6

Give the measured T2 sensor activation Q score of COc1ccc(CCNC2(C#N)CCCCC2)cc1OC .
-0.65

Give the measured T2 sensor activation Q score of COC[C@H]1OC(=O)c2coc3c2[C@@]1(C)C1=C(C3=O)[C@@H]2CCC(=O)[C@@]2(C)C[C@H]1OC(C)=O .
2.1

Give the measured T2 sensor activation Q score of CC12CCC3C(CCC4Cc5[nH]c6ccccc6c5CC43C)C1CCC2O (stereo unspecified) .
0.65

Give the measured T2 sensor activation Q score of CN1CCN(c2ccc([N+](=O)[O-])c3no[n+]([O-])c23)CC1 .
0.1

Give the measured T2 sensor activation Q score of O=C1N(c2nncs2)CCN1[N+](=O)[O-] .
1.2

Give the measured T2 sensor activation Q score of NCCCNCCSP(=O)(O)O .
-0.45

Give the measured T2 sensor activation Q score of Cc1c(CCN)ccc2c1[nH]c1ccccc12 .
0.7

Give the measured T2 sensor activation Q score of COc1ccc2c(c1)C13CCN(C)C(C2)C1CCC1(C3)OCCO1 (stereo unspecified) .
2
